These measurements were taken from patent US9249125B2.

# Target entity: Syk (Homo sapiens (Human))
// NB: equality with 30 nM counts as rule not met; only IC50 strictly below is rule met

molecule="CC(C)c1cc(NC(=O)Nc2ccc(Oc3ccnc(Nc4ccc5[nH]ncc5c4)c3)c3ccccc23)n(-c2cccc(OCCN3CCOCC3)c2)n1 [Example 51]" class_assignment="rule met"
molecule="Cc1ccc(-n2nc(C(C)(C)C)cc2NC(=O)Nc2ccc(Oc3ccnc(Nc4ccc5c(c4)CC(=O)N5)n3)c3ccccc23)cc1 [Example 19]" class_assignment="rule not met"
molecule="COc1ccc(-n2nc(C(C)C)cc2NC(=O)Nc2ccc(Oc3ccnc(Nc4ccc5[nH]nc(OCCN6CCOCC6)c5c4)n3)c3ccccc23)cc1 [Example 44]" class_assignment="rule met"
molecule="COc1ccc(-n2nc(C3CCOC3)cc2NC(=O)Nc2ccc(Oc3ccnc(Nc4ccc5[nH]ncc5c4)n3)c3ccccc23)cc1 (stereo not drawn) [Example 8]" class_assignment="rule met"
molecule="Cc1ccc(-n2nc(C(C)(C)C)cc2NC(=O)Nc2ccc(Oc3ccnc(Nc4ccc5[nH]ncc5c4)n3)c3ccccc23)cc1 [Example 22]" class_assignment="rule met"
molecule="Cc1cc(Nc2nccc(Oc3ccc(NC(=O)Nc4cc(C(C)(C)C)nn4-c4ccc(OCCN5CCOCC5)cc4)c4ccccc34)n2)cc2cn[nH]c12 [Example 73]" class_assignment="rule met"
molecule="Cc1ccc(-n2nc(C(C)(C)C)cc2NC(=O)Nc2ccc(Oc3ccnc(Nc4ccc5[nH]nc(C(=O)NCCN6CCOCC6)c5c4)n3)c3ccccc23)cc1 [Example 3]" class_assignment="rule not met"
molecule="Cc1ccc(-n2nc(C(C)(C)C)cc2NC(=O)Nc2ccc(Oc3ccnc(Nc4ccc5c(c4)ncn5C)n3)c3ccccc23)cc1 [Example 4]" class_assignment="rule met"
molecule="Cc1ccc(-n2nc(C(C)(C)C)cc2NC(=O)Nc2ccc(Oc3ccnc(Nc4cccc5cn[nH]c45)n3)c3ccccc23)cc1 [Example 25]" class_assignment="rule not met"
molecule="CC(C)(C)c1cc(NC(=O)Nc2ccc(Oc3ccnc(Nc4ccc5[nH]ccc5c4)n3)c3ccccc23)n(-c2ccc(O)cc2)n1 [Example 37]" class_assignment="rule not met"
molecule="Cc1ccc(-n2nc(C(C)(C)C)cc2NC(=O)Nc2ccc(Oc3ccnc(Nc4cccc5cc[nH]c45)n3)c3ccccc23)cc1 [Example 17]" class_assignment="rule not met"
molecule="Cc1ccc(-n2nc(C(C)(C)C)cc2NC(=O)Nc2ccc(Oc3ccnc(Nc4ccc5c(ccn5C)c4)n3)c3ccccc23)cc1 [Example 18]" class_assignment="rule not met"

----------
# Test system: LPS-induced IL-8 release in d-U937 cells
# Experiment notes: LPS-induced IL-8 release in d-U937 cells
# Type: cell-based
# Condition: Homo sapiens, dU937, read-out: LPS Induced Release of Cytokine in d-937 Cells IL-8 IC50
Exam item: assign 1.0 to entries whose IC50 is below 4 nM and 0.0 to entries at or above 4 nM. Note that a value of exactly 4 nM receives 0.0.

item_smiles=CC(C)(C)c1cc(NC(=O)Nc2ccc(Oc3ccnc(Nc4ccc5c(c4)NC(=O)C5)n3)c3ccccc23)n(-c2cccc(OCCN3CCOCC3)c2)n1 class_assignment=0.0
item_smiles=CC(C)(C)c1cc(NC(=O)Nc2ccc(Oc3ccnc(Nc4ccc5c(c4)C(=O)NC5)n3)c3ccccc23)n(-c2ccc(OCCN3CCOCC3)cc2)n1 class_assignment=1.0
item_smiles=Cc1nc2cc(Nc3nccc(Oc4ccc(NC(=O)Nc5cc(C(C)(C)C)nn5-c5ccc(OCCN6CCOCC6)cc5)c5ccccc45)n3)ccc2[nH]1 class_assignment=0.0
item_smiles=Cc1ccc(-n2nc(C(C)(C)C)cc2NC(=O)Nc2ccc(Oc3ccnc(Nc4cnc5[nH]ncc5c4)n3)c3ccccc23)cc1 class_assignment=0.0
item_smiles=COc1ccc(-n2nc(C(C)C)cc2NC(=O)Nc2ccc(Oc3ccnc(Nc4ccc5[nH]nc(OCCN6CCOCC6)c5c4)n3)c3ccccc23)cc1 class_assignment=1.0
